Measured values drawn from paper PMC5540273 for this set.

# Test system: PIK4CB
# Construct: gene PI4KB
# runConditions: concentration: 1 μM, replicates: in singlicate; n = 1;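 also: KINOMEscan kinase panel screen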
measure: %Inh (%)

compound	unitsOfMeasure	quantitativeResult
Cc1ccc(O)cc1Nc1cc(C(F)(F)F)nc2ccc(-c3ccncc3)cc12	%	0
Fc1cccc(COc2ccc(Nc3ncnc4nn5ccccc5c34)cc2Cl)c1	%	0
Cl.Cl.c1ccc(-c2cc3ccncc3cc2OC2CCNCC2)cc1	%	0
COc1ccc(NC(=O)c2ccc(-c3cc(-c4nnc(C)o4)ccc3C)cc2)cc1	%	0
Cl.c1ccc(Cn2ccc3cc(Nc4ncnc5ccccc45)ccc32)cc1	%	24
COC(=O)c1cccc(NC(=O)NCCNc2ccnc(Nc3ccc(F)cc3)n2)c1	%	0
CC(C)(C)OC(=O)NC1CCCN(c2cc(-c3ccc4c(N)n[nH]c4c3)nc(N)n2)C1 (stereo not drawn)	%	1
Cc1ccc(NC(=O)c2cccc(C#N)c2)cc1-c1ccc(C(=O)Nc2ccncc2)cc1	%	11
Nc1nccc2scc(-c3ccc4c(c3)CCN4C(=O)Cc3cc(F)ccc3F)c12	%	0

----------
# System: LATS2
# runConditions: concentration: 1 μM, replicates: in singlicate; n = 1
%Inh values, listed per item

substanceSmiles	%Inh, %
O=C(c1ccc(-c2cc(-c3c[nH]nc3-c3ccccn3)ccn2)cc1)N1CCCC1	0
N#Cc1ccc(Oc2ccc(Nc3ncnc4cc[nH]c34)cc2Cl)cc1	23
CN1c2ccc(-c3ccc(C(=O)NCCO)cc3)cc2-c2[nH]ncc2S1(=O)=O	11
Cl.c1ccc(Cn2ncc3cc(Nc4ncnc5ccccc45)ccc32)cc1	0
Nc1n[nH]c2nnc(-c3ccccc3)cc12	0

----------
# System: TNK1
# runConditions: concentration: 1 μM, replicates: in singlicate; n = 1

substanceSmiles	systemTested	%Inh, %
COC(=O)c1c(-c2ccccc2)c2cc(Cl)ccc2c(=O)n1Cc1ccc(S(C)(=O)=O)cc1	TNK1	0
CC(C)N1CCC(n2cnc(-c3ccc(F)cc3)c2-c2ccnc(N)n2)CC1	TNK1	3
C[C@@H]1CCN(C(=O)CO)C[C@@H]1N(C)c1ncnc2[nH]ccc12	TNK1	62
Fc1ccc(Nc2nccc(-c3c(-c4ccc(Cl)cc4)nn4ncccc34)n2)cc1F	TNK1	24
O=C(Nc1n[nH]c2nc(-c3ccco3)c(Br)cc12)c1ccc(CN2CCCC2)cc1.O=C(O)[C@H](O)[C@@H](O)C(=O)O	TNK1	38
Clc1cc(Nc2ncnc3cc[nH]c23)ccc1OCc1ccccn1	TNK1	0
CCn1c(-c2ccncc2)nc2cnccc21	TNK1	1
Cl.Fc1ccccc1COc1ccc(Nc2ncnc3ccc(-c4nnc(C(F)(F)F)o4)cc23)cc1Cl	TNK1	0
N#Cc1ccc(Oc2ccc(Nc3ncnc4cc[nH]c34)cc2Cl)cc1	TNK1	0
Nc1nc(-c2cccnc2)c(-c2ccnc3ccccc23)s1	TNK1	0
Cc1cc(N2CCC(NS(=O)(=O)c3ccc(F)cc3)CC2)nc(Nc2cccc(C#N)c2)n1.O=C(O)C(F)(F)F	TNK1	0
CS(=O)(=O)CCNCc1ccc(-c2ccc3ncnc(Nc4ccc(OCc5ccccc5)c(Cl)c4)c3c2)o1.Cl	TNK1	0
COc1ccc(NC(=O)Nc2ccc(C)c(-c3ccc(C(=O)Nc4ccncc4)cc3)c2)cc1	TNK1	0
O=C(NCCCN1CCCC1=O)c1cnc(NCc2cc(Cl)ccc2Cl)nc1NC1CCNCC1	TNK1	34
Oc1ccc2ncnc(Nc3ccc(OCc4ccccc4)cc3)c2c1	TNK1	0
Nc1nc(-c2ccc3c(N)n[nH]c3c2)cc(N2CCC[C@@H](C(=O)Nc3ccccc3)C2)n1.O=C(O)C(F)(F)F.O=C(O)C(F)(F)F	TNK1	0
CN1c2ccc(-c3ccc(C(=O)NCCO)cc3)cc2-c2[nH]ncc2S1(=O)=O	TNK1	52
